System: TK-10 renal
TEST: NCI tumour cell line growth inhibition, 48 h

# MOLECULE, TARGET_ENTITY, GI50
data = [
    ("CC1=CC(C)(C)Nc2ccc(Cc3ccc4c(c3)C(C)=CC(C)(C)N4)cc21", "TK-10 renal", "16.8 µM"),
    ("Cc1nc2sc(C(=O)Nc3ccccc3)c(N)c2cc1C(O)c1ccccc1 (stereo not given)", "TK-10 renal", "6.03 µM"),
    ("Cc1c(Cl)cccc1NC(=O)c1sc2nc3c(cc2c1N)C(=O)CCC3", "TK-10 renal", "37.6 µM"),
    ("C[C@@H](CS[As](C)C)C(=O)N1CCC[C@H]1C(=O)O", "TK-10 renal", "0.268 µM"),
    ("CCC[n+]1cc2cc3c(cc2c2c1-c1cc4c(cc1C2)OCO4)OCO3 (tested in a mixture with another compound)", "TK-10 renal", "4.11 µM"),
    ("Cc1ccnc2c(NC(C)CCCN)cc(O)c(O)c12 (stereo not given)", "TK-10 renal", "47.7 µM"),
    ("CN(C)CC1C(=O)O[C@H]2[C@H]1CC/C(COC(=O)NCc1ccc(Cn3c(=O)sn(CCCI)c3=O)cc1)=C\\CC[C@@]1(C)O[C@@H]21 (stereo not given in full)", "TK-10 renal", "0.862 µM"),
    ("[Cl][Hg][c]1ccc2ccccc2c1", "TK-10 renal", "2.92 µM"),
    ("C[C@@]1(C(=O)O)CCC[C@]2(C)C1CC[C@]13C[C@@](O)(CO)[C@](O)(CC[C@]12O)C3 (stereo not given in full)", "TK-10 renal", "> 100 µM"),
    ("C[C@H]1COCCN1c1nc(-c2cnc(N)cc2C(F)F)nc(N2CCOCC2)n1", "TK-10 renal", "0.0866 µM"),
]
